Origin of values: ChEMBL document CHEMBL1136176

As shown below, each of these molecules has a reported K1 value.
- test-system: 5-hydroxytryptamine receptor 1A (Rattus norvegicus)
- method: Antagonistic activity against 5-hydroxytryptamine 1A receptor in rat cerebral cortex using [3H]8-OH-DPAT as radioligand.
- Format: functional, tissue-based
# unit: nM | format: bare number

Give K1 only, for CC(C)C(=O)Nc1cccc(N2CCN(CCCCN3C(=O)C4CCCN4C3=O)CC2)c1 (centres undefined) , using 5-hydroxytryptamine receptor 1A (Rattus norvegicus) data. 193

// fetch K1 for CCCNC(=O)c1ccccc1N1CCN(CCCCN2CC(=O)N3CCCC3C2=O)CC1 (centres undefined) ; system: 5-hydroxytryptamine receptor 1A (Rattus norvegicus) 1230

State K1 on 5-hydroxytryptamine receptor 1A (Rattus norvegicus). Entry: Cc1ccccc1N1CCN(CCCN2C(=O)C3CCCCN3C2=O)CC1 (centres undefined) 220

Specify the recorded K1 for Cc1ccccc1N1CCN(CCCCN2C(=O)C3CCCN3C2=O)CC1 (centres undefined) , system: 5-hydroxytryptamine receptor 1A (Rattus norvegicus). 16
